Target: Lysosomal acid glucosylceramidase (Homo sapiens) (UniProt P04062)
Sequence (P04062 whole entry, looked up): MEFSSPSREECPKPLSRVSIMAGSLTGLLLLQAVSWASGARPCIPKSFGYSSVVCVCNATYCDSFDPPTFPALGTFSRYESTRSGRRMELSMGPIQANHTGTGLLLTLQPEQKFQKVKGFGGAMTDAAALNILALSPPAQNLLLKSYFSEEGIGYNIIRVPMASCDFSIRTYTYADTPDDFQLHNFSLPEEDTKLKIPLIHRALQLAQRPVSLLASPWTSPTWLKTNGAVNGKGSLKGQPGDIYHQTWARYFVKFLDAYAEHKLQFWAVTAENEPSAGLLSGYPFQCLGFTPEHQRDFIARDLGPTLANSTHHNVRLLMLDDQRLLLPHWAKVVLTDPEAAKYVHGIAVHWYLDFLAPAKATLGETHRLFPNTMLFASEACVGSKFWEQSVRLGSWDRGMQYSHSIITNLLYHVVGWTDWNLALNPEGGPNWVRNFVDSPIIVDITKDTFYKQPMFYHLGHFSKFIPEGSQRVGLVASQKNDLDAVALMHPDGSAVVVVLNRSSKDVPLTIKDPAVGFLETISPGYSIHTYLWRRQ
Assay: Glucocerebrosidase-p2 (AID 348); also: potency is read from the fitted curve at half-maximal effect
Settings: purified GBA, blue fluorogenic substrate, 40 min
Activity calls are given as the source filed them. Rule as the data show it: active = potency below about 10 µM; inactive = the rest.
Pick one: 1 for active, 0 for inactive

Compound | Assigned Label
Cn1c(=O)c2[nH]c([C@@H]3CC(=O)C[C@H](c4nc5c([nH]4)c(=O)n(C)c(=O)n5C)N3)nc2n(C)c1=O | 0
Cn1c(=O)c2[nH]c(CCCCC(=O)O)nc2n(C)c1=O | 0
NCCSCCC(=O)O | 0
C[C@@](O)(CNS(=O)(=O)c1ccccc1)c1ccccc1 | 0
NCCNC(=S)S | 1

-- ask Query: recorded result category for COC(=O)[C@@H]1C(O)[C@@H](C(=O)OC)[C@H](C)N(C)[C@@H]1C (some centres not stated) in this test
-- reply 0

-- ask Query: recorded result category for `COc1cc(O)c2c(O)c3c(c4c2c1[C@@]1(C4)C(C)=CCCC1(C)C)[C@H](O)[C@@]1(O)CC(=O)C(C(N)=O)=C(O)[C@]1(O)C3=O` in this test
-- reply 0

-- ask Query: recorded result category for `O=C1CCC(c2ccccc2)=NN1c1nc2ccccc2s1` in this test
-- reply 0

-- ask Query: recorded result category for `Cn1c(=O)c2[nH]c(SCc3ccccn3)nc2n(C)c1=S` in this test
-- reply 0

-- ask Query: recorded result category for `CC(=O)CSCc1ccccn1` in this test
-- reply 0

-- ask Query: recorded result category for `O=S(=O)(c1cccc(C(F)(F)F)c1)N1c2ccccc2-n2cccc2[C@H]1c1cccnc1` in this test
-- reply 0

-- ask Query: recorded result category for `CN1CCC[C@H](C(=O)OCC(=O)[C@]2(O)CC[C@@H]3[C@H]4CCC5=CC(=O)CC[C@@]5(C)[C@H]4[C@@H](O)C[C@]32C)C1` in this test
-- reply 0

-- ask Query: recorded result category for `Cc1[nH]c(N)nc(=S)c1CCCNc1ccccc1` in this test
-- reply 0

-- ask Query: recorded result category for `O=C(O)CNC(=O)[C@H]1NC(C(F)(F)F)(C(F)(F)F)OC1(C(F)(F)F)C(F)(F)F` in this test
-- reply 0

-- ask Query: recorded result category for O=S(=O)(O)[C@@H](CO)c1ccccc1 (tested in a mixture with another compound) in this test
-- reply 0

-- ask Query: recorded result category for `C=C1CCO[C@@]2([C@H](O)[C@@](C)(O)CO)NC(=O)[C@]1(O)NC2=O` in this test
-- reply 0

-- ask Query: recorded result category for `CC1=C(CC[C@H](C)CO)O[C@@H]2C[C@@H]3[C@H]4CC[C@H]5C[C@@H](O)CC[C@]5(C)[C@@H]4CC(=O)[C@@]3(C)[C@@H]12` in this test
-- reply 0

-- ask Query: recorded result category for `CCOC(=O)[C@@H](O)Cc1cnc2ccccc2n1` in this test
-- reply 0

-- ask Query: recorded result category for `c1cncc(CNCc2cccnc2)c1` in this test
-- reply 0

----------
Target: 3',5'-cyclic-AMP phosphodiesterase 4B (Homo sapiens)
Experiment: qHTS Assay for Inhibitors of PDE-IV (AID 607); also: % of control where 0% means no effect
Conditions: HEK293 ACTOne CNG channel cells, membrane potential fluorescence; series mostly up to 22.9 µM
Records with an inconclusive call do not appear. Active and inactive are the calls of the source. Calls come from the whole dose curve; as a rule, active = well fitted activation curve with a large enough effect in the main read-out, with a control signal flat (not every such curve was filed as active); inconclusive = small, poorly fitted or top-dose-only effect, or effect the other way, or a change in a side signal; inactive = flat fitted curve, though single readings scatter.
Measured Attribute: outcome

Smiles Input | Test Target | Assay Value
N[C@@H](CSc1nc2ccccn2c1[N+](=O)[O-])C(=O)O | 3',5'-cyclic-AMP phosphodiesterase 4B (Homo sapiens) | inactive
Cc1nn(-c2ccc(S(=O)(=O)O)cc2)c(O)c1N=Nc1ccc(-c2ccc(N=Nc3ccc4c(S(=O)(=O)O)cc(S(=O)(=O)O)c(N)c4c3O)c(O)c2)cc1O.[Cu].[Cu] | 3',5'-cyclic-AMP phosphodiesterase 4B (Homo sapiens) | inactive
C/C(=N\O)c1cccc[n+]1Cc1ccccc1 | 3',5'-cyclic-AMP phosphodiesterase 4B (Homo sapiens) | inactive
OC[C@@H]1O[C@H](n2cnc3c(/C=C(\O)c4ccccc4)ncnc32)[C@H](O)[C@@H]1O | 3',5'-cyclic-AMP phosphodiesterase 4B (Homo sapiens) | inactive

Where do these numbers come from? They come from PubChem BioAssay (NCATS).
